Assay Name: self-splicing fitness, log relative to wild type (ln ratio); higher = more splicing; Tetrahymena group I intron in knt gene, E. coli kanamycin selection, DiMSum; sequences stand for … in CUCUCU…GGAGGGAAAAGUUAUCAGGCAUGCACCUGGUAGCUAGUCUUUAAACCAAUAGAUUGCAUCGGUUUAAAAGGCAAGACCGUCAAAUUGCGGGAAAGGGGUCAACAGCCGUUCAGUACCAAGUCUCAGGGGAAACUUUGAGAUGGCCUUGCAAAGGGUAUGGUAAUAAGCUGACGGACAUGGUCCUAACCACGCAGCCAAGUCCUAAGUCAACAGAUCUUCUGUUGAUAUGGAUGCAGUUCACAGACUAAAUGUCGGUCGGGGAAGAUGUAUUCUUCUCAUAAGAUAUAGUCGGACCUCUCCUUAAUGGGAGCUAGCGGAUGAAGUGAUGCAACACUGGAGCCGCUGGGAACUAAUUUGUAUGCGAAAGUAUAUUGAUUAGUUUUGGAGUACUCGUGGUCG;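 note: selection with 25 µg/mL kanamycin versus none on LB agar overnight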
Condition Set: 37 °C
Kind request: treat -2 as inclusive, so self-splicing fitness (ln) at -2 or higher is T, anything lower is F.

1. GUUAAGCAAUAUUACGGCGC; T
2. AUCAAGCAAUAUUACGUGAU; F
3. UUGAAGCAAUAUUACGGAGC; F
4. CAAAAGCAAUAUUACGCACA; T
5. CGAGAGCAAUAUUACGCACU; T
6. CCUAAGCAAUAUUACGCGCA; F
7. CACCAGCAAUAUUACGACAG; T
8. UAGAAGCAAUAUUACGCUCA; T
9. AUCAAGCAAUAUUACGGUAC; T
10. UGAGAGCAAUAUUACGUAAU; F
11. UGCUAGCAAUAUUACGUUUG; T
12. GAAGAGCAAUAUUACGUCUU; F
13. GGGGAGCAAUAUUACGCUGA; F

* * *

Assay Name: self-splicing fitness, log relative to wild type (ln ratio); higher = more splicing; Tetrahymena group I intron in knt gene, E. coli kanamycin selection, DiMSum; sequences stand for … in CUCUCU…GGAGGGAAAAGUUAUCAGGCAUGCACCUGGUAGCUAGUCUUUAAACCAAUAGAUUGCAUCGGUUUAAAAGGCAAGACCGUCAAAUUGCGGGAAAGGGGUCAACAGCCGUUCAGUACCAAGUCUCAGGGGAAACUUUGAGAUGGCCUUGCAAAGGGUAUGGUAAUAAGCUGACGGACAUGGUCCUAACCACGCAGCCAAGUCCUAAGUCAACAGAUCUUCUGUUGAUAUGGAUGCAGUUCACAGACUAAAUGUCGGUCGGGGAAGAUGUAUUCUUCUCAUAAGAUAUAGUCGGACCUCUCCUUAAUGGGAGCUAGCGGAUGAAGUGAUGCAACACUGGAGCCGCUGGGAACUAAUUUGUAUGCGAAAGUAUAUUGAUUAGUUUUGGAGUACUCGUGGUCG
Condition Set: 37 °C
Classification by self-splicing fitness (ln) follows these ranges: LOW: < -1; MID: ≥ -1 and < -0.8; HIGH: ≥ -0.8

1) UAAAAGCAAUAUUACGAUGU; LOW
2) GGGGAGCAAUAUUACGGCAA; HIGH
3) GUCGAGCAAUAUUACGGUUG; LOW
4) CCUUAGCAAUAUUACGGGUA; LOW
5) AUAAAGCAAUAUUACGCCUU; HIGH
6) CAGCAGCAAUAUUACGAGGG; LOW
7) AGUUAGCAAUAUUACGUCAC; MID
8) GGUCAGCAAUAUUACGCUCG; HIGH
9) AAGUAGCAAUAUUACGGCGG; MID
10) AACGAGCAAUAUUACGGAUC; LOW

* * *

Assay Name: self-splicing fitness, log relative to wild type (ln ratio); higher = more splicing; Tetrahymena group I intron in knt gene, E. coli kanamycin selection, DiMSum; sequences stand for … in CUCUCU…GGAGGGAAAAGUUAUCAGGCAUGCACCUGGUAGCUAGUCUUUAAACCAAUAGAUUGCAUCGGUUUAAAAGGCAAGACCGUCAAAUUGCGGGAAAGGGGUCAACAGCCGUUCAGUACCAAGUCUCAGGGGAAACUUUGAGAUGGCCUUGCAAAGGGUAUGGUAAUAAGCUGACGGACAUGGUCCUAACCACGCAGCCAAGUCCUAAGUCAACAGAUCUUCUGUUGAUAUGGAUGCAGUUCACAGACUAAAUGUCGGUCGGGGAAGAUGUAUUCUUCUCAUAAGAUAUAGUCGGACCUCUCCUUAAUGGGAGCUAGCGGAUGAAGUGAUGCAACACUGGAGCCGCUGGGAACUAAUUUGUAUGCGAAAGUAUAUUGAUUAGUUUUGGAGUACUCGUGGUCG
Condition Set: 30 °C
Kind request: treat -2 as inclusive, so self-splicing fitness (ln) at -2 or higher is 1, anything lower is -1.

1) AUCUAGCAAUAUUACGAUAC; -1
2) GACCAGCAAUAUUACGCUCC; -1
3) GCCGAGCAAUAUUACGCUAC; -1
4) GGGUAGCAAUAUUACGAUCU; 1
5) UUCCAGCAAUAUUACGCUUA; 1
6) GUUUAGCAAUAUUACGCAAG; -1
7) GCGAAGCAAUAUUACGACCG; 1
8) GCUUAGCAAUAUUACGUUCG; 1
9) CUGUAGCAAUAUUACGGCUG; 1
10) AAGGAGCAAUAUUACGAGGA; -1

* * *

Assay Name: self-splicing fitness, log relative to wild type (ln ratio); higher = more splicing; Tetrahymena group I intron in knt gene, E. coli kanamycin selection, DiMSum; sequences stand for … in CUCUCU…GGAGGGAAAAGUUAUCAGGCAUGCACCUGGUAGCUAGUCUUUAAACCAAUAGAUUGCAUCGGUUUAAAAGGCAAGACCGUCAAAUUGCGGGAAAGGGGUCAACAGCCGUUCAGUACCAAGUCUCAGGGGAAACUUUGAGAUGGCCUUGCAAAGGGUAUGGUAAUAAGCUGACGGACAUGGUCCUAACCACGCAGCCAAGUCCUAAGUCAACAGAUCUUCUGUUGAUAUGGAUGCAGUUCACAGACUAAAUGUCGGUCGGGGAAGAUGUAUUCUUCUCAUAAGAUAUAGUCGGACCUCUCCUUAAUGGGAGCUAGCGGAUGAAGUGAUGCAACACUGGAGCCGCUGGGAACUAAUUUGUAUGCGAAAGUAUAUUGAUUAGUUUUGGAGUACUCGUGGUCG
Condition Set: 37 °C
Endpoint Name: self-splicing fitness (ln)

1) UAGGAGCAAUAUUACGAAUC; -2.02
2) CGCGAGCAAUAUUACGGCUA; -1.98
3) CUUGAGCAAUAUUACGUUGA; -1.97

* * *

self-splicing fitness (ln) overview
Assay Name: self-splicing fitness, log relative to wild type (ln ratio); higher = more splicing; Tetrahymena group I intron in knt gene, E. coli kanamycin selection, DiMSum; sequences stand for … in CUCUCU…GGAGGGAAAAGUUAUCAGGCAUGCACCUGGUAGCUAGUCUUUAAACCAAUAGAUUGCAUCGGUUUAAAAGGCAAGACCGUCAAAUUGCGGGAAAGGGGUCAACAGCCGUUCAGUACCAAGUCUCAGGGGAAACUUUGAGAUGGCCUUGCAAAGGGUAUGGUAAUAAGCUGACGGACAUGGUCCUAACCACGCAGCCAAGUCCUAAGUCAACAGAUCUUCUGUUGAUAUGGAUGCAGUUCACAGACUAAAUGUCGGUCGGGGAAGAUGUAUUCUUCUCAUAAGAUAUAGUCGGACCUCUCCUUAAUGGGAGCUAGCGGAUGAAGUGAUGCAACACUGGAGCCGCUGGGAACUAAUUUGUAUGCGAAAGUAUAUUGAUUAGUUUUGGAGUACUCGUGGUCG
Condition Set: 37 °C
Endpoint Name: self-splicing fitness (ln)

1) GUGCAGCAAUAUUACGGUUG; -1.95
2) UAGUAGCAAUAUUACGUUAG; -1.97
3) UCUCAGCAAUAUUACGACUC; -2.02

* * *

Assay Name: self-splicing fitness, log relative to wild type (ln ratio); higher = more splicing; Tetrahymena group I intron in knt gene, E. coli kanamycin selection, DiMSum; sequences stand for … in CUCUCU…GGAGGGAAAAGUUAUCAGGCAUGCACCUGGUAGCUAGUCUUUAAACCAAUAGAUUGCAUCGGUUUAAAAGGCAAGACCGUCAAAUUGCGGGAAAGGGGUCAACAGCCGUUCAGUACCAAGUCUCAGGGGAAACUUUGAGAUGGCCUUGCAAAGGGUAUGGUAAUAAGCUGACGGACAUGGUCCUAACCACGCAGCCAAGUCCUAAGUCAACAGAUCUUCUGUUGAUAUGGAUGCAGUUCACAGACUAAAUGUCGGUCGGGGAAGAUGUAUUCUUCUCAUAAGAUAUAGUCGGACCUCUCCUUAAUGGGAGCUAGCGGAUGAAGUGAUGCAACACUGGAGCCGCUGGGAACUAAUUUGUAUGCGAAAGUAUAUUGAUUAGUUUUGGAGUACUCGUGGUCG
Condition Set: 37 °C
self-splicing fitness (ln) overview
Endpoint Name: self-splicing fitness (ln)

1. UCGUAGCAAUAUUACGUAAU; -1.78
2. ACGAAGCAAUAUUACGUACU; -0.0153
3. GCCCAGCAAUAUUACGUUAG; -2.26
4. ACACAGCAAUAUUACGUAGG; -1.64
5. UCGCAGCAAUAUUACGGACC; -2.69
6. GUCCAGCAAUAUUACGACGU; 0.365
7. GUCUAGCAAUAUUACGAUGA; -0.329
8. CACGAGCAAUAUUACGGACU; -1.44
9. AUUUAGCAAUAUUACGACCG; -0.522
